# protocol_text: small-molecule microarray binders of probe aWnt5a, primary screen, biochemical, biotinylated probe, 635/667 nm fluorescence (AID 1113);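 further: score merges 667 nm fluorescence intensity with signal-to-noise per printed feature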
# experimental_parameters: higher = more signal
readout: composite z-score
Format: numeric value only, no unit, no commentary.

Could you please provide reported composite z-score for COc1cc2c(cc1OC)CN(C(=O)[C@H]1[C@@H]3C(=O)O[C@@H](c4ccccc4)[C@@H](c4ccccc4)N3[C@@H](c3ccc(O)cc3)[C@]13C(=O)Nc1ccc(C#CC4=CCCCC4)cc13)CC2 ? Thanks!
0.133

Could you please provide reported composite z-score for O=C(NCc1ccccc1)[C@@]1(CCS(=O)(=O)c2ccccc2)N=C(c2ccc(OCCCO)cc2)O[C@H]1c1ccccc1 ? Thanks!
0.111

Could you please provide reported composite z-score for C=CCNC(=O)[C@@H]1[C@H]2C(=O)O[C@H](c3ccccc3)[C@H](c3ccccc3)N2[C@H](c2ccccc2OCCO)[C@@]12C(=O)N(C(=O)OCCOC)c1ccc(C#CCNC(N)=O)cc12 ? Thanks!
-0.0196

Could you please provide reported composite z-score for CN1C(=O)C2C=CC(C(O)C3CCCCC3)N(Nc3ccc([N+](=O)[O-])cc3[N+](=O)[O-])C2C1=O (centres undefined) ? Thanks!
-0.0472

Could you please provide reported composite z-score for COC(=O)[C@@]1(Cc2ccc(F)cc2)[C@H]2c3cc(C(=O)N4CCCC4)n(Cc4ccc(C)o4)c3C[C@H]2CN1C(=O)c1ccccc1 ? Thanks!
0.319

Could you please provide reported composite z-score for CC(C)[C@@H](CO)NC(=O)[C@H]1[C@@H](c2ccccc2)N(c2ccccc2)O[C@@H]1C ? Thanks!
-0.148

Could you please provide reported composite z-score for COC(=O)C(CC#Cc1ccc2c(c1)[C@]1(C(=O)N2)[C@H](C(=O)O)[C@H]2C(=O)O[C@H](c3ccccc3)[C@H](c3ccccc3)N2[C@@H]1c1ccc(O)cc1)C(=O)OC ? Thanks!
-0.124

Could you please provide reported composite z-score for C=CCNC(=O)[C@@H]1[C@H]2C(=O)O[C@H](c3ccccc3)[C@H](c3ccccc3)N2[C@H](c2ccc(OCCO)cc2)[C@@]12C(=O)Nc1ccc(C#Cc3ccc(OC)cc3)cc12 ? Thanks!
0.0597

Could you please provide reported composite z-score for CCN(CC)c1ccc(N2CC=CC34O[C@@H]5/C=C\CCCOC(=O)C5[C@H]3C(=O)N(CCO)[C@@H]4C2=O)cc1 (some centres undefined) ? Thanks!
-0.113

Could you please provide reported composite z-score for CCCCCCC#C[Si](O[C@H](c1ccccc1)c1cn([C@H](CO)Cc2ccccc2)nn1)(C(C)C)C(C)C ? Thanks!
-0.096

Could you please provide reported composite z-score for CCCC#C[Si](O[C@H](CC)c1cn([C@H](CO)Cc2ccccc2)nn1)(C(C)C)C(C)C ? Thanks!
0.0597

Could you please provide reported composite z-score for CCOC(=O)C1=CCC(c2ccc(C)cc2)N(S(=O)(=O)c2ccc(C)cc2)C1 (centres undefined) ? Thanks!
-0.0226

Could you please provide reported composite z-score for COc1cc(CO)cc(I)c1O[C@H]1C=C(C(=O)NCCO)C[C@@H](N(CCN2CCOCC2)C(=O)C2CCOC2)[C@@H]1O (some centres undefined) ? Thanks!
-0.247

Could you please provide reported composite z-score for O=C(c1ccccc1)N1Cc2ccccc2[C@@H]2OC(c3ccc(OCCCO)cc3)=N[C@]2(Cc2ccccc2)C1=O ? Thanks!
0.0825

Could you please provide reported composite z-score for C=CC[C@@]1(C(=O)N(C)C)N=C(c2ccc(OCCCO)cc2)O[C@@H]1c1ccccc1N=[N+]=[N-] ? Thanks!
0.0597

Could you please provide reported composite z-score for COCCOC(=O)N1C(=O)[C@@]2(c3cc(C#CC4=CCCCC4)ccc31)[C@H](C(=O)Nc1nc3ccccc3s1)[C@H]1C(=O)O[C@H](c3ccccc3)[C@H](c3ccccc3)N1[C@@H]2c1ccc(OCCO)cc1 ? Thanks!
-0.0685

Could you please provide reported composite z-score for N#Cc1ccc(NN2C(C(O)c3c(F)cccc3Cl)C=CC3C(=O)N(c4ccccc4)C(=O)C32)cc1 (centres undefined) ? Thanks!
0.0724

Could you please provide reported composite z-score for CCOC(=O)C=Cc1cc([N+](=O)[O-])ccc1O ? Thanks!
-0.124

Could you please provide reported composite z-score for O=C1O[C@H](c2ccccc2)[C@H](c2ccccc2)N2[C@H]1[C@@H](C(=O)Nc1nc3ccccc3s1)[C@]1(C(=O)Nc3ccc(C#CCCO)cc31)[C@H]2c1ccc(OCCO)cc1 ? Thanks!
0.0927

Could you please provide reported composite z-score for COc1ccc([C@H]2C[C@H]3C(Br)=C[C@@H]2C(=O)[C@]32CO2)cc1 ? Thanks!
0.0136

Could you please provide reported composite z-score for COc1cc2c(cc1O)C=[N+](Cc1cccc(OC(F)(F)F)c1)CC2 ? Thanks!
-0.158

Could you please provide reported composite z-score for CN(C)C(=O)[C@@]1(Cc2ccccc2)N=C(c2ccc(OCCCO)cc2)O[C@H]1c1ccccc1N=[N+]=[N-] ? Thanks!
0.178

Could you please provide reported composite z-score for COc1ccc(COC2OC[C@]3(C)[C@H]4C5=C(CN3C(=O)OC(C)(C)C)[C@H](C)C(CO)C(CO)C5CC[C@@H]24)cc1 (some centres undefined) ? Thanks!
0.0118

Could you please provide reported composite z-score for O=C1[C@H]2C=C(Br)[C@H](C[C@@H]2OCCCCO)[C@@]12CO2 ? Thanks!
-0.0944

Could you please provide reported composite z-score for CCCC[C@H]1OB(O)C[C@H]2C1=C(COc1ccccc1)C[C@H]1C(=O)N(C)C(=O)[C@H]12 ? Thanks!
0.0438

Could you please provide reported composite z-score for CC(=O)n1cc(C(O)C2C=CC3C(=O)N(C)C(=O)C3N2Nc2ccccc2)c2ccccc21 (centres undefined) ? Thanks!
0.105

Could you please provide reported composite z-score for CCCCC=C[C@@H](NC(=O)Oc1cccc(C(F)(F)F)c1)c1ccccc1 ? Thanks!
1.04

Could you please provide reported composite z-score for CC(=O)NCCCC[C@@H]1NC(=O)[C@@H]2C[C@H](C(=O)NCCCCCCNC(=O)CS)[C@H](c3cccc(OCCO)c3)N2C1=O ? Thanks!
0.0004

Could you please provide reported composite z-score for COc1ccc(C(=O)Nc2ccc(CN3C(=O)[C@@]4(O[C@@H](CCO)[C@H]([Si](C)(C)c5ccc(OC)cc5)[C@H]4C)c4ccccc43)cc2)cc1 ? Thanks!
0.0367
